Where do these numbers come from? They come from the Human Domainome abundance scans (Beltran et al. 2025).

B1: Nuclear receptor subfamily 4 group A member 2, residues 260 to 336; numbered along this chain, P43354 (parent)
chain: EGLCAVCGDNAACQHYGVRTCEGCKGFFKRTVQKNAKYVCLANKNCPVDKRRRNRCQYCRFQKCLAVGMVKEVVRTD

Variants of: B1
test.name: abundance fitness (aPCA) (normalised: wild type 0, dead -1); higher = more abundant; growth selection in yeast, the domain comes from the species named
experimental.context: Homo sapiens
Label scheme for abundance fitness: lower than -0.1 is condition not met, -0.1 and above is condition met.

The examples below pair each entry with its known result.
{"mutant": "A36S", "assigned.category": "condition met"}
{"mutant": "H15N", "assigned.category": "condition met"}
{"mutant": "C24R", "assigned.category": "condition not met"}

// inclusive: abundance fitness at least -0.1? input: `Q62C`
condition not met

// inclusive: abundance fitness at least -0.1? input: `R60S`
condition met
